assay text: yeast display, Sf9 membrane polyspecificity reagent, FACS + sequencing; frameworks hold sequencing errors
quantity kind: polyreactivity (PSR sort gate)

Sample records with polyreactivity (PSR sort gate):
seq text	observed measurement
QVQLVESGGGLVQAGGSLRLSCASSGSTFPRYAMGWYRPAPGKETELVAAISSSGRTYYADSVKGRFTISRDNAKNTVFLQMNSLKPEDTAVYYCNAPVARGEASYYWGQGTQVTVSS	high polyreactivity
QVQLVESGGGLVQAGGSLRLSCAASGSIFWVYAMGWYRQAPGKERELVAAISSSGGRTYYADSVKGRFTISRDNAKNTVYLQMNSVKPEVTAVYYCAARWKTGYNYWGQGTQVTVSS	high polyreactivity
QDQLEESALGLVQAGGSLRLICAASGRTFQYYTMAWYRPAPAKEREFVAAIRDSGGSTYYADSVKGRFTISRDNAKNTVYLQMNSLKPEDTAVYYCNKVPNGPSNYDYWGQGTQVTVSS	high polyreactivity
QVQLVESGGVLDPAGGSLRLSCAASGSTFISNAMRWYRQAPGKERELVATITYSDATTYYADSVKGRFTISRDNAKNTVYLQMNSLKPEDTAVYYCNTRFFRPLWGYNYWGQGTQVTVSS	low polyreactivity
QVQLVESGGGLVQAGGSLRLSCAASGSIIFSYAMGWYRQAPGKEREFVAAITGSGGSTYYADSVKGRFTISRDNAKNTVYLQMNSLKPEDTAVYYCARPQWRDWYGYWGQGTQVTVSS	low polyreactivity
QVQLVESGGGLVQAGGSLSLSCAASGFTLGYYAMGWYRQAPGKERELVAAITSGGGTNYADSVKGRFTISRDNAKNTVYLQMNSLKPEDTAVYYCAARARWIYGMYSWGQGTQVTVSS	low polyreactivity

Give the reported polyreactivity (PSR sort gate) for this sequence. `QVQLEESGGGLVQAGGSLRLSCAASGITFTLNAMGWYRQAPGKERELVATINRGTGTNYADSVKGRFTISRDNAKYTVYLQMNSLKPEVTAVYYCAADHRGEYDYWGQGTQVTVSS`
low polyreactivity

Complete the entry with polyreactivity (PSR sort gate) for `QVQLVESGGGLVQAGGSLRLICAASGNIFDVNAMGLYRQAPGKERELVAGITTNGGRTFYADSVKGRFTFSRDNAKNTVYLQMNSLKPEDTAVYYWNARHGRHRRTPFAKYDFWGQGTQVTVSS`
high polyreactivity

Supply polyreactivity (PSR sort gate) value. Item: `QVQLVESGGGIVQAGGSLRLSCAASGRTIPYHAMGWYRQAPGKERELDAAISYSGGRTYYADCVKGRFTISRDNAKNSVYLLMNSLKPDDTAVYYCNALGSGREDVYWGQGTQVTVSS`
high polyreactivity

Give a short answer stating reported polyreactivity (PSR sort gate) for `QVQLVESAGGLVQAGGSLRLSCAASGSTFANYAMGWYRQAPGKERELVAGISWRGGRTYYADSVKGRFTISRDNAKNTVYLQMNSLKPEDTAVYYSAVVHQTFTGDYWGQGTQVTVSS` .
high polyreactivity

# return recorded polyreactivity (PSR sort gate) for entry `QVQLVESGGGLVQAGGSLRLSCAASGSIFEPYAMGWYRQAPGKERELVAAISSGTSTYYADSVKGRFTISRDNAKNTVYLQLNSLKPEDTAVYYCAAEEQIPWTNNAKYYYWGQGTQVTVSS`
low polyreactivity

Please look at this sequence and report its polyreactivity (PSR sort gate): `QVQLVESGGGLVQAGGSLRLSCAASGIIFRDYDMGWYRQAPGKERELVAAITWDGGSTYYADSVKGRFTISRDNAKNTVYLQMNSLTPEDTAVYYCAADSRYHYYVGYYYWGQGTQVTVSS`
high polyreactivity

Tell me its polyreactivity (PSR sort gate) given `QVQLVESGGGLVQAGGSLRLSCAASGSIFTAYALGWYRQAPGKERELVAAIDDSGDSTYYADSVKGRFTISRDNAKNTVYLQMHSLKPEDTAVNYCKAEYRVNKEYDYWGQGTQVTVSS` as the entry.
low polyreactivity

Respond only with polyreactivity (PSR sort gate) recorded for `QVQLVESGGGLVQAGGSLRLSCAASGSTFSSLIMGWYRQAPGKERELVAAISRSGGRTYYADSVKGRFTISRDNAKNTVYLQMNSLIPEDTAVYYCAADYVSVDRIRYGYCGQGTQVTVSS`
high polyreactivity

Give polyreactivity (PSR sort gate) for `QVQLVESGGGLVQAGGSLRLSCAASGRTFWYYAMGWYRQAPGKEREFVAAISWSGGSTYYADSVKGRFTISRDNAKNTVYLQMNSLKPEDTAVYYCAADRYDSSQFYYWGQGTQVTVSS`
low polyreactivity

* * *

assay text: yeast display, Sf9 membrane polyspecificity reagent, FACS + sequencing; frameworks hold sequencing errors
quantity kind: polyreactivity (PSR sort gate)

Solved cases (5 shown):
seq text	polyreactivity (PSR sort gate)
QVQLVESGGGLVQAGGSLRLSCAASGRIFRYYAMGWYRQAPGKERELVAAIRSDDSTNYADSVKGRFTISRDNAKNTVYLQMNSLKPEDTAVYYCAAVKAYYGGSRSYYYWGQGTQVTVSS	high polyreactivity
QVHLVESGGGLVQAGGSLRLSCAASGRTFKGYAMGWYRQAPGKERELVASINWSDGNTYYADSVKGRFTISRDNAKNTVYLQMNSLKPEDTAVYYCNVRRGDRFVRHDYWGQGTQVTVSS	low polyreactivity
QVQLVESGGGLVQAGGSLRLSCAASGSIFDGNAMGWYRQAPGKERDLVAANTKNDGTTYYADSVKGRFTISRDNAKNTVYLQMNSLKQEDTAVYYCAAESVYQVYTYVSSGDYWGQGTQVTVSS	low polyreactivity
QVQLVESGGGLVQAGGSLRLSCPASGRIFYPYPKGWYRQAPGKERELVATITRTGSTYYADSVKGRFTITRDNAKNTVYVQMNSLKPEDPAVYYCAVQRSYVGPRQYNYWGQGTQVTVSS	high polyreactivity
QVQLVESGGGLVQAGGSLRLSCAASGSNFVLYAMGWYRQAPGKESELVAAISSSGGSTYADSVKGRFTISRDNAKNTVYLQMNSLKPEDTAVYYCARDVYLSDPPRDYDYWGQGTQVTVSS	low polyreactivity

Answer with the recorded polyreactivity (PSR sort gate) for the sequence listed here: `QVQLVESGGGLVQAGGSLRLSCAASGFTFLRYALGWYRQAPGKERELVAAISTSGGSTSYADSVKGRFTITRDNAKNTVYLQMNSLKPEDTAVYYCNAVLYKVSISEYDYWGQGTQVTVSS`
high polyreactivity

Give me measured polyreactivity (PSR sort gate), please, for this sequence: `QVQHVETGGGLVQAGGSLRLSCAATGYTLYRYPMGWYRQAPGKERELVARISYRTGSTYYADSVKGRFTISRDKAKNTVYLQMNSLKPEDTAVYYCAKYPGISGYKYWGQGTQVTVSS`
high polyreactivity

Supply reported polyreactivity (PSR sort gate) belonging to this sequence: `QVQLVESGGGLVQAGGSLRLSCAASGRIFTPYPMGWYRQAPGKERELVAVIRDGSTYYADSVKGRFTISRDNAKNSVYLQMNSLKPEDSAVYYCRYDIWVWWSGAYDYWGQGTQVTVSS`
low polyreactivity

Report measured polyreactivity (PSR sort gate); entry is `QVQLVESGGGLVQAGGSLRLSCAASGIIFRRYAMGWYRQAPVKERELVAAITRGGITYYADSVKGRFTISRDNAKNTVYLQMNSLKPEDTAVYYCAALAYPQEYDYWGQGTQVTVSS`
low polyreactivity

Provide measured polyreactivity (PSR sort gate) value, entry: `QVQLVESGGGLVQAGGSLRLSCAASGRTFDRYTMGWYRRAPGKERELVATIRSTGSTYYADSVKGRFTISRDNAKNTVYLQMNSLKTEDTAVYYCNRKYRSSLPYGDGYWGQGTQVTVSS`
low polyreactivity

Provide measured polyreactivity (PSR sort gate) value, entry: `QVQLVESGGGLVQAGGSLRLSCAASGSIFYYAMGWYRQAPGKERELVATITRRGGRTHYADSVKGRFTLSRDNAKNTVYLQMNSLKPEDTAVYYCAADSYSYRYYYWGQGTQVTVSS`
high polyreactivity

Tell me measured polyreactivity (PSR sort gate) for `QVQLVESGGGLVQAGGSLRLSCAASGSTIQQYAMGWYRQAPGKEREFVAAISWRGGRTYYADSVKGRFTISRDNAKNTVSLQMNSLKPEDTAVYYCAVDPSIYRLSAYYYDYWGQGTQVTVSS` please.
low polyreactivity

Kindly indicate its recorded polyreactivity (PSR sort gate). Item: `QDQLVESGGGLLQAGGILRLRCAASGSILNYYAMGWYIQAPGKERELVAAISSSDGRTYYAYSEKGRFTISRDNAKNTVYLQMNSLKPEDSAVYYCAAEGTYSYSSWYEYWGQGTQVTLSS`
high polyreactivity

* * *

assay text: yeast display, Sf9 membrane polyspecificity reagent, FACS + sequencing; frameworks hold sequencing errors
quantity kind: polyreactivity (PSR sort gate)

seq text	observed measurement
QVQLVESGGGLVQAGGSLRLSCAASGSTFSRNAMGWYRQAPGKERELVASISWSGARTYYADSVKGRFTISRDNAKNTVYLQMNSLKPEDTAVYYCAKFRSYRGPYNYWGQGTQVTVSS	high polyreactivity
QVQLEESGGGLVQAGGSLRLSCAASGFTFVDYLMGWYRQAPGKERELVAAITRSGGSTYYADSVKGRFTISRDQAKNTVYLEMNSLKPEDTAVYYCAAEIRDYAKSYSFYWGQGTQVTVSS	high polyreactivity
